Kindly state ELISA for each of the entries shown.
molecular target: biotinylated SARS-CoV-2 S1 variant B.1.351 (Example 5) (SARS-CoV-2) (UniProt P0DTC2); assay: phage ELISA screening
The response must contain the number and no unit.

Tell me the measured ELISA of 12-34 (antibody, V domains shown) VH: QVQLVESGGGVVQPGRSLRLSCAASGFIFRSYAMHWVRQAPGKGLEWVAVISYDGSSKYYADSVKGRFTISRDNSKNTLYLQMNSLRAEDTAVYYCARPSGGSYFDPFDYWGQGTLVTVSS VL: EIVLTQSPATLSLSPGERATLSCRASQSVGNFLAWYQQKPGQAPRLLIYDASNRATGIPARFSGSGSGTDFTLTISSLEPEDFAVYYCQHRRLLTFGGGTKVEIK , please.
5.81

Tell me the measured ELISA of 12-1 (antibody, V domains shown) VH: QVQLVESGGGVVQPGRSLRLSCAASGFTFSYYGMHWVRQAPGKGLEWVAVTSYDGSNKYYADSVKGRFTISRDNSKNTLYLQMNSLRAEDTAVYYCARPQGGSYFAAFDIWGQGTLVTVSS VL: EIVLTQSPATLSLSPGERATLSCRASQSVSSHLAWYQQKPGQAPRLLIYDVSNRATGIPARFSGSGSGTDFTLTISSLEPEDFAVYYCQQRDTFTFGGGTKVEIK , please.
29.2

Tell me the measured ELISA of 12-22 (antibody, V domains shown) VH: QVQLVESGGGVVQPGRSLRLSCAASGFTFSSYGMHWVRQAPGKGLEWVAVISYDGNHEYYADSVKGRFTISRDNSKNTLYLQMNSLRAEDTAVYYCARPKSGSYVSYFDYWGQGTLVTVSS VL: EIVLTQSPATLSLSPGERATLSCRASQSVRHHLAWYQQKPGQAPRLLIYDASNRATGIPARFSGSGSGTDFTLTISSLEPEDFAVYYCQERSDWPITFGGGTKVEIK , please.
10.5

Tell me the measured ELISA of 11-4 (antibody, V domains shown) VH: QVQLVESGGGVVQPGRSLRLSCAASGFTFDNYAMHWVRQAPGKGLEWVAVISDDGRNKYYADSVKGRFTISRDNSKNTLYLQMNSLRAEDTAVYYCAKDNYYDSSGYYGGGMDVWGQGTLVTVSS VL: EIVLTQSPATLSLSPGERATLSCRASQSVGSYLAWYQQKPGQAPRLLIYDAVNRATGIPARFSGSGSGTDFTLTISSLEPEDFAVYYCQQRFTWPTTFGGGTKVEIK , please.
16.3

Tell me the measured ELISA of 12-2 (antibody, V domains shown) VH: QVQLVESGGGVVQPGRSLRLSCAASGFIFRSYAMHWVRQAPGKGLEWVAVISYDGSSKYYADSVKGRFTISRDNSKNTLYLQMNSLRAEDTAVYYCARPSSGSYFPPFDYWGQGTLVTVSS VL: EIVLTQSPATLSLSPGERATLSCRASQSVDSRLAWYQQKPGQAPRLLIYDTSNRATGIPARFSGSGSGTDFTLTISSLEPEDFAVYYCQQRSTWPPVFGGGTKVEIK , please.
25.9

Tell me the measured ELISA of 12-29 (antibody, V domains shown) VH: QVQLVESGGGVVQPGRSLRLSCAASGFSFSNYGMHWVRQAPGKGLEWVAVISYDGNNKYYADSVKGRFTISRDNSKNTLYLQMNSLRAEDTAVYYCARSKGGSYYGPFDDWGQGTLVTVSS VL: EIVLTQSPATLSLSPGERATLSCRASQIISSYLAWYQQKPGQAPRLLIYDTSNRATGIPARFSGSGSGTDFTLTISSLEPEDFAVYYCQVRSNWPPLTFGGGTKVEIK , please.
7.55

Tell me the measured ELISA of 11-9 (antibody, V domains shown) VH: QVQLVESGGGVVQPGRSLRLSCAASGFTFGTYAMHWVRQAPGKGLEWVAVVSTEGGTTYYADSVKGRFTISRDNSKNTLYLQMNSLRAEDTAVYYCAGSYGAYFDYWGQGTLVTVSS VL: EIVLTQSPATLSLSPGERATLSCRASQSVSYYLAWYQQKPGQAPRLLIYDSSNRATGIPARFSGSGSGTDFTLTISSLEPEDFAVYYCQQRSNWQGNFGGGTKVEIK , please.
9.14

Tell me the measured ELISA of 12-16 (antibody, V domains shown) VH: QVQLVESGGGVVQPGRSLRLSCAASGFIFRSYAMHWVRQAPGKGLEWVAVISYDGSSKYYADSVKGRFTISRDNSKNTLYLQMNSLRAEDTAVYYCARTLGGSYFAAFDIWGQGTLVTVSS VL: EIVLTQSPATLSLSPGERATLSCRASQSLDSYLAWYQQKPGQAPRLLIYDVSNRATGIPARFSGSGSGTDFTLTISSLEPEDFAVYYCQQRRGWPPVTFGGGTKVEIK , please.
17

Tell me the measured ELISA of 11-10 (antibody, V domains shown) VH: QVQLVESGGGVVQPGRSLRLSCAASGFIFNNYGMHWVRQAPGKGLEWVAVISYDGSNIYYADSVKGRFTISRDNSKNTLYLQMNSLRAEDTAVYYCARDYNDGIGSYTGAFDSWGQGTLVTVSS VL: EIVLTQSPATLSLSPGERATLSCRASQSVSTSLAWYQQKPGQAPRLLIYDATNRATGIPARFSGSGSGTDFTLTISSLEPEDFAVYYCQQHYSWPLTFGGGTKVEIK , please.
7.06

Tell me the measured ELISA of 12-28 (antibody, V domains shown) VH: QVQLVESGGGVVQPGRSLRLSCAASGFTFSSYAMHWVRQAPGKGLEWVAVISYDGTNEYYADSEKGRFTISRDNSKNTLYLQMNSLRAEDTAVYYCARAHGGSYFSGMDVWGQGTLVTVSS VL: EIVLTQSPATLSLSPGERATLSCRASQSVRHHLAWYQQKPGQAPRLLIYDASNRATGIPARFSGSGSGTDFTLTISSLEPEDFAVYYCQQSGSWPLTFGGGTKVEIK , please.
8.63
